# Test system: PC3 cells
# ASSAY_INFO: EB1 Comet (microtubule disruption) assay
# Assay type: cell-based, human
# EXPERIMENTAL_CONTEXT: Homo sapiens, PC-3, 1 h, 1 hour treatment, read-out: EB1 pLAC (converted)
# Method: The Eb1 Comet assay relies on the detection of the Eb1 protein at the plus end of polymerizing microtubules (Mimori-Kiyosue, 2000) using indirect immunofluorescence. […] Briefly, human prostate cancer PC3 cells obtained from the American Type Culture Collection were grown in 96-well plates (Greiner, cat. no. 655090) in HAM's F12 medium as recommended by the provider (ATCC). […] Compound dependent microtubule disruption was visually determined by the disappearance in Eb1 foci. […]
VALUE_TYPE: minimal effective concentration (µM)
Answer in µM, number only, no unit symbol.

Look up minimal effective concentration with PC3 cells for this compound: CCc1cc2c(OC)cc(C(C)(C#N)Cc3nc(OC)cc(OC)n3)cc2[nH]c1=O (single isomer, unassigned) [Compound 230]
1

Moving on to CCc1cc2ccc(C(C)(C#N)Cc3cccc(C#N)c3)cc2[nH]c1=O (centres unmarked)
0.316

Now try CCc1cc2ccc(C(C)(C#N)Cc3ccc(C)c(F)c3F)cc2[nH]c1=O (centres unmarked) .
1

Input Cc1cc2ccc(C(C)(C#N)Cc3cccc(I)c3)cc2[nH]c1=O (centres unmarked)
0.316

Could you do the same for CCc1cc2ccc(C(C)(C#N)Cc3cccc(F)c3F)cc2[nH]c1=O (centres unmarked) , please?
0.316

Param item: CCc1cc2ccc(C(C)(C#N)Cc3c(F)cccc3F)cc2[nH]c1=O (centres unmarked)
1

Try the compound CCc1cc2ccc(C(C)(C#N)Cc3cccc(CCC#N)c3)cc2[nH]c1=O (centres unmarked)
1

Now try CCc1cc2ccc(C(C)(C#N)Cc3cc(OCCOC)nc(Cl)n3)cc2[nH]c1=O (centres unmarked) .
1

Data provenance is patent US8778966B2.
